The reported measurements were obtained from patent US20210024639A1.

# Assay System: native mouse MET on living mouse cells (mouse, UniProt P16056 25-1379)
# Assay Notes: cell-based or functional assay
Listing of recorded cell scattering score, MLP29, 9.000 nM by entry.
Measurement Name: cell scattering score, MLP29, 9.000 nM (score 0-4)

[
  {
    "Binder": "chimeric llama-human IgG1 mAb 72F8 (antibody, V domains shown) VH: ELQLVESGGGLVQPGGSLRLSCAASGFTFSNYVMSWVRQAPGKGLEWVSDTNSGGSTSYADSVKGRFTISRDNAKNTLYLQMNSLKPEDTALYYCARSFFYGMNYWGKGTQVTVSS VL: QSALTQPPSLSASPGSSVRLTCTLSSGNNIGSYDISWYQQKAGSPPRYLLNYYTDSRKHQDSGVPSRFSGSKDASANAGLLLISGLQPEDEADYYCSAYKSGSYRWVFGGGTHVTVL",
    "Measurement Name": "cell scattering score, MLP29, 9.000 nM",
    "Numeric Readout": 3
  },
  {
    "Binder": "chimeric llama-human IgG1 mAb 71G12 (antibody, V domains shown) VH: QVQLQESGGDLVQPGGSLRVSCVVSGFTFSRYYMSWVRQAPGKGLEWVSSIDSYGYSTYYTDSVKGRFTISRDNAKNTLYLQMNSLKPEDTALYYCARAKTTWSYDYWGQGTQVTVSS VL: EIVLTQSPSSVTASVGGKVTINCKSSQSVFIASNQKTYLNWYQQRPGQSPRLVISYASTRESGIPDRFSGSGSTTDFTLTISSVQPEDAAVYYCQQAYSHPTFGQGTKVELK",
    "Measurement Name": "cell scattering score, MLP29, 9.000 nM",
    "Numeric Readout": 3
  },
  {
    "Binder": "chimeric llama-human IgG1 mAb 71D6 (antibody, V domains shown) VH: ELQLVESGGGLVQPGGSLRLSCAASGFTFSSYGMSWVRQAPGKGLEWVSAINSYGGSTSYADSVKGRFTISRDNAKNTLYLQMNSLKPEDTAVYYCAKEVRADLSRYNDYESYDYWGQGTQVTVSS VL: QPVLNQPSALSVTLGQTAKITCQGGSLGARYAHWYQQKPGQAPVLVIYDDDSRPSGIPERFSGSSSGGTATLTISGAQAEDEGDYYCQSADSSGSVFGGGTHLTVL",
    "Measurement Name": "cell scattering score, MLP29, 9.000 nM",
    "Numeric Readout": 4
  },
  {
    "Binder": "chimeric llama-human IgG1 mAb 74C8 (antibody, V domains shown) VH: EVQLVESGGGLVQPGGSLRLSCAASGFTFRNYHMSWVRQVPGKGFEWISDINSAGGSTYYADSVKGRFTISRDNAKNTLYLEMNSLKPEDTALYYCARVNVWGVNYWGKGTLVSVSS VL: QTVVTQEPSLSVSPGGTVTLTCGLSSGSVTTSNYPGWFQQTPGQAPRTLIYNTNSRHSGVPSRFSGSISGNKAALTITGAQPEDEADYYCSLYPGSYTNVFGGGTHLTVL",
    "Measurement Name": "cell scattering score, MLP29, 9.000 nM",
    "Numeric Readout": 4
  },
  {
    "Binder": "chimeric llama-human IgG1 mAb 71D4 (antibody, V domains shown) VH: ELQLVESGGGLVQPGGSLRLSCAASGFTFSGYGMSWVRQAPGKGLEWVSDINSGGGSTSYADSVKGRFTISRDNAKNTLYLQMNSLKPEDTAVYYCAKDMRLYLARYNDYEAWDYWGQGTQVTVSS VL: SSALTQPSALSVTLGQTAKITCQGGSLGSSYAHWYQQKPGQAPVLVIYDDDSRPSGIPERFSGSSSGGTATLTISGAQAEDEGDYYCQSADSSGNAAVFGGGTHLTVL",
    "Measurement Name": "cell scattering score, MLP29, 9.000 nM",
    "Numeric Readout": 2
  },
  {
    "Binder": "chimeric llama-human IgG1 mAb 76H10 (antibody, V domains shown) VH: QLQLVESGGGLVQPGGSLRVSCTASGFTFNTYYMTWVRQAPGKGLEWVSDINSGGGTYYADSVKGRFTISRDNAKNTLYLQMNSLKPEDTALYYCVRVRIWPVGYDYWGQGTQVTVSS VL: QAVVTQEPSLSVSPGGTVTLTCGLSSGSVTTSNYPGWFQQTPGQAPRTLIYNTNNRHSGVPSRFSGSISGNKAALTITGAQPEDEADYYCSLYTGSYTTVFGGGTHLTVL",
    "Measurement Name": "cell scattering score, MLP29, 9.000 nM",
    "Numeric Readout": 3
  }
]
